assay: Concentration in mouse serum after oral administration; format: in vivo, male ICR mice; settings: mouse serum, dose not given
Reported AUC values are given for each entry in this list.
Answer with a number only, understood to be in ng·h/mL.

Below: 2 molecules and their reported AUC.
smiles	AUC (ng·h/mL)
CC[C@H]1OC(=O)[C@H](C)C(=O)[C@H](C)[C@@H](O[C@@H]2O[C@H](C)C[C@H](N(C)C)[C@H]2O)[C@](C)(OC)C[C@@H](C)C(=O)[C@H](C)[C@H]2OC(=O)O[C@@]21C	1370
CC[C@H]1OC(=O)[C@H](C)C(=O)[C@H](C)[C@@H](O[C@@H]2O[C@H](C)C[C@H](N(C)C)[C@H]2O)[C@](C)(OC)C[C@@H](C)C(=O)[C@H](C)[C@H]2NC(=O)O[C@@]21C	2900

Bench note: what AUC did CC[C@H]1OC(=O)[C@H](C)[C@@H](O[C@H]2C[C@@](C)(OC)[C@@H](O)[C@H](C)O2)[C@H](C)[C@@H](O[C@@H]2O[C@H](C)C[C@H](N(C)C)[C@H]2O)[C@](C)(OC)C[C@@H](C)C(=O)[C@H](C)[C@@H](O)[C@]1(C)O show?
880

# credit: patent US5591837A
